Run Description: Toxicity liver stage against HepG2, at 10uM
Type: cell-based
Set-up: test concentration 10 uM, cell line HepG2-A16-CD81EGFP
Experimental Setup: human, HepG2-A16-CD81EGFP cells; read-out: INHIBITION
Experimental Readout: cytotoxicity at 10 µM (%)
Give bare numbers, in %.

Examples with answers:
{"Compound": "CC(C)(C)S(=O)(=O)c1ccc(N2CCC(n3cncn3)CC2)cn1", "Val": 3.94}
{"Compound": "COc1cccc(-c2ncc(CN3CC[C@@H]4CC[C@H](C3)N4)s2)c1", "Val": -12.4}
{"Compound": "O=C(NCC1CCN(C(=O)c2ccoc2)CC1)c1ccccc1Br", "Val": -12.3}
{"Compound": "O=C(C1CC1)N1CCC2(CC1)CNCc1ccccc12", "Val": 1.79}
{"Compound": "Cc1cnc(C(=O)N2CCC3(CCN3Cc3ccc(F)cc3)C2)cn1 (stereo not drawn)", "Val": -104}
{"Compound": "c1cc2n(n1)CC(CNCc1ccc(OC3CCCC3)nc1)CN2 (stereo not drawn)", "Val": -5.17}
{"Compound": "c1cc(CNCc2ccnc(N3CCOCC3)c2)c2c(c1)OCCO2", "Val": -4.66}
{"Compound": "CCc1[nH]c2c(CNc3nccc(N)n3)cc(C)cc2c1C", "Val": 3.4}

Hi team, please reply with cytotoxicity at 10 µM for each item in this list.
1. COc1ccc(CNC2CCCN(Cc3noc(C)n3)C2)cc1F (stereo not drawn)
2. Cc1ncc(S(C)(=O)=O)c(N2CCCCCC2)n1
3. N#Cc1ccc(CN2CCN(C(=O)C3CCC3)[C@@H]3CS(=O)(=O)C[C@@H]32)cc1

Completion:
1. -12.5
2. -0.972
3. -9.78

Provide each entry's cytotoxicity at 10 µM from the list below.
1. CN(Cc1ccco1)[C@@H]1CN(Cc2ccsc2)C[C@@H]2CCCO[C@@H]21
2. CCNC(=O)Nc1ccc(N2CCC(OC)CC2)c(C(F)(F)F)c1
3. NC(=O)c1ccc(NC(=O)Cn2cc(I)cn2)cc1
4. COc1ccc(CN(C)C(=O)CN2CC(n3cccn3)C2)cc1F

Completion:
9.59
20.4
8.49
-0.717

Please state, for each entry, its recorded cytotoxicity at 10 µM.
1. Cc1cnc(CN(Cc2cccc(O)c2)CC2CC2)cn1
2. NS(=O)(=O)NCc1cc(-c2ccc(C(F)(F)F)cc2)n[nH]1
3. CC(C)(C)Nc1nc(-c2cccnc2)c(-c2ccnc(NCCO)n2)s1
4. Cc1ccc(Cl)cc1N1CCC(CNC(=O)CCn2ccnc2)C1 (stereo not drawn)
5. CCc1noc(C2CCCCN2C(=O)c2ccn(C3CCCC3)n2)n1 (stereo not drawn)
6. CCN1CCN(C)C2(CCN(Cc3cccc(C)n3)CC2)C1=O
7. CS(=O)(=O)N[C@@H]1CN(Cc2ccc3ncccc3c2)C[C@H]1O

Completion:
[16.7, -6.11, -5.64, -9.7, 11.8, 2, -4.34]

Prompt: For the compound C[C@@H]1C[C@@H]2CCN(Cc3ccccn3)C[C@H]2O1 , what cytotoxicity at 10 µM is on record?
Completion: -75.9
